# Test system: Radical scavenging activity
# PROTOCOL TEXT: Antioxidant activity assessed as DPPH free radical scavenging activity at 200 ug/mL after 20 min by UV-Vis spectrophotometric analysis
# Format: functional
# Activity per entry
MEASURED METRIC: Activity (%)

1. COc1ccc(C2CC(c3ccc(C)cc3)=Cc3n[nH]c(O)c32)cc1OC (stereo not given) :: 91.4
2. O=[N+]([O-])c1cccc(C2CC(c3ccc(F)cc3)=Cc3n[nH]c(O)c32)c1 (stereo not given) :: 92.3
3. O=c1[nH][nH]c2c1C(c1ccccc1)CC(c1ccc(F)cc1)=C2 (stereo not given) :: 92.2
4. Oc1[nH]nc2c1C(c1ccccc1)CC(c1ccccc1)=C2 (stereo not given) :: 90.6
5. COc1ccc(C2CC(c3ccccc3)=Cc3n[nH]c(O)c32)cc1 (stereo not given) :: 91.8
6. COc1cc(C2CC(c3ccc(C)cc3)=Cc3n[nH]c(O)c32)cc(OC)c1OC (stereo not given) :: 91.8
7. COc1ccc(C2CC(c3ccc(Cl)cc3)=Cc3n[nH]c(O)c32)cc1 (stereo not given) :: 91.2
8. Cc1ccc(C2=Cc3n[nH]c(O)c3C(c3ccc(C)cc3)C2)cc1 (stereo not given) :: 68.1
9. COc1ccc(C2CC(c3ccc(OC)c(OC)c3)=Cc3n[nH]c(O)c32)cc1 (stereo not given) :: 58.8
10. COc1ccc(C2=Cc3n[nH]c(O)c3C(c3ccc(OC)c(OC)c3)C2)cc1 (stereo not given) :: 92.1

* * *

# System: Radical scavenging activity
# PROTOCOL TEXT: Antioxidant activity assessed as DPPH free radical scavenging activity at 500 ug/mL after 20 min by UV-Vis spectrophotometric analysis
# Format: functional
# Activity per entry
MEASURED METRIC: Activity (%)

1. Cc1ccc(C2=Cc3n[nH]c(O)c3C(c3ccc(C)cc3)C2)cc1 (stereo unspecified) :: 85.2
2. COc1ccc(C2=Cc3n[nH]c(O)c3C(c3ccc(OC)c(OC)c3)C2)cc1 (stereo unspecified) :: 90.8
3. Cc1ccc(C2CC(c3ccccc3)=Cc3n[nH]c(O)c32)cc1 (stereo unspecified) :: 85.7
4. COc1ccc(C2CC(c3ccc(Cl)cc3)=Cc3n[nH]c(O)c32)cc1 (stereo unspecified) :: 90
5. COc1ccc(C2CC(c3ccc(OC)c(OC)c3)=Cc3n[nH]c(O)c32)cc1 (stereo unspecified) :: 82.6
6. COc1ccc(C2CC(c3ccc(Cl)c(Cl)c3)=Cc3n[nH]c(O)c32)cc1 (stereo unspecified) :: 91.3
7. COc1ccc(C2CC(c3ccc4c(c3)OCO4)=Cc3n[nH]c(O)c32)cc1 (stereo unspecified) :: 90.1
8. Oc1[nH]nc2c1C(c1ccccc1)CC(c1ccccc1)=C2 (stereo unspecified) :: 89.2
9. O=c1[nH][nH]c2c1C(c1ccccc1)CC(c1ccc(F)cc1)=C2 (stereo unspecified) :: 90.8
10. O=[N+]([O-])c1cccc(C2CC(c3ccc(F)cc3)=Cc3n[nH]c(O)c32)c1 (stereo unspecified) :: 91.1
11. COc1ccc(C2CC(c3ccc(C)cc3)=Cc3n[nH]c(O)c32)cc1OC (stereo unspecified) :: 91
12. COc1cc(C2CC(c3ccccc3)=Cc3n[nH]c(O)c32)cc(OC)c1OC (stereo unspecified) :: 90.8
13. COc1cc(C2CC(c3ccc(C)cc3)=Cc3n[nH]c(O)c32)cc(OC)c1OC (stereo unspecified) :: 90.6
14. O=[N+]([O-])c1ccc(C2=Cc3n[nH]c(O)c3C(c3ccc4c(c3)OCO4)C2)cc1 (stereo unspecified) :: 87.3
15. COc1ccc(C2CC(c3ccccc3)=Cc3n[nH]c(O)c32)cc1OC (stereo unspecified) :: 90.8
16. COc1ccc(C2CC(c3ccccc3)=Cc3n[nH]c(O)c32)cc1 (stereo unspecified) :: 90.2

* * *

# Activity per entry
# Tested on: Radical scavenging activity
# PROTOCOL TEXT: Antioxidant activity assessed as DPPH free radical scavenging activity at 200 ug/mL after 20 min by UV-Vis spectrophotometric analysis
# Format: functional
MEASURED METRIC: Activity (%)

1) O=[N+]([O-])c1ccc(C2=Cc3n[nH]c(O)c3C(c3ccc4c(c3)OCO4)C2)cc1 (stereo unspecified) :: 83.4
2) COc1cc(C2CC(c3ccccc3)=Cc3n[nH]c(O)c32)cc(OC)c1OC (stereo unspecified) :: 92.3
3) COc1ccc(C2CC(c3ccc(Cl)c(Cl)c3)=Cc3n[nH]c(O)c32)cc1 (stereo unspecified) :: 91.5
4) COc1ccc(C2CC(c3ccccc3)=Cc3n[nH]c(O)c32)cc1OC (stereo unspecified) :: 91.9
5) COc1ccc(C2CC(c3ccc4c(c3)OCO4)=Cc3n[nH]c(O)c32)cc1 (stereo unspecified) :: 91.9
6) Cc1ccc(C2CC(c3ccccc3)=Cc3n[nH]c(O)c32)cc1 (stereo unspecified) :: 69.9

* * *

# System: Klebsiella pneumoniae
# PROTOCOL TEXT: Antibacterial activity against Klebsiella pneumoniae MTCC 7028 assessed as growth inhibition at 100 ug/disk after 24 hr by disk diffusion method
# Format: functional
# PARTICULARS: MTCC 7028, 24 h, read-out: DIZ
MEASURED METRIC: zone of inhibition at 100 µg/disc (mm)

1) CCOC(=O)C1C(=O)C=C(c2ccc(C)cc2)CC1c1cc(OC)c(OC)c(OC)c1 (stereo not given) :: 0
2) O=[N+]([O-])c1cccc(C2CC(c3ccc(F)cc3)=Cc3n[nH]c(O)c32)c1 (stereo not given) :: 0
3) CCOC(=O)C1C(=O)C=C(c2ccc(F)cc2)CC1c1cccc([N+](=O)[O-])c1 (stereo not given) :: 0
4) CCOC(=O)C1C(=O)C=C(c2ccc(Cl)cc2)CC1c1ccc(OC)cc1 (stereo not given) :: 0
5) CCOC(=O)C1C(=O)C=C(c2ccc(C)cc2)CC1c1ccc(C)cc1 (stereo not given) :: 5

* * *

# zone of inhibition at 100 µg/disc per entry
# Test system: Pseudomonas aeruginosa
# PROTOCOL TEXT: Antibacterial activity against Pseudomonas aeruginosa MTCC 2581 assessed as growth inhibition at 100 ug/disk after 24 hr by disk diffusion method
# Type: functional
# PARTICULARS: MTCC 2581, 24 h, read-out: DIZ
MEASURED METRIC: zone of inhibition at 100 µg/disc (mm)

1. CCOC(=O)C1C(=O)C=C(c2ccc([N+](=O)[O-])cc2)CC1c1ccc2c(c1)OCO2 (centres undefined) :: 0
2. Cc1ccc(C2CC(c3ccccc3)=Cc3n[nH]c(O)c32)cc1 (centres undefined) :: 10
3. CCOC(=O)C1C(=O)C=C(c2ccc(Cl)cc2)CC1c1ccc(OC)cc1 (centres undefined) :: 0
4. CCOC(=O)C1C(=O)C=C(c2ccc(Cl)c(Cl)c2)CC1c1ccc(OC)cc1 (centres undefined) :: 0
5. CCOC(=O)C1C(=O)C=C(c2ccc(C)cc2)CC1c1ccc(C)cc1 (centres undefined) :: 10
6. CCOC(=O)C1C(=O)C=C(c2ccc(C)cc2)CC1c1ccc(OC)c(OC)c1 (centres undefined) :: 0
7. Oc1[nH]nc2c1C(c1ccccc1)CC(c1ccccc1)=C2 (centres undefined) :: 0
8. Cc1ccc(C2=Cc3n[nH]c(O)c3C(c3ccc(C)cc3)C2)cc1 (centres undefined) :: 10
9. COc1ccc(C2CC(c3ccccc3)=Cc3n[nH]c(O)c32)cc1 (centres undefined) :: 0
10. COc1ccc(C2=Cc3n[nH]c(O)c3C(c3ccc(OC)c(OC)c3)C2)cc1 (centres undefined) :: 0
11. COc1ccc(C2CC(c3ccccc3)=Cc3n[nH]c(O)c32)cc1OC (centres undefined) :: 5
12. CCOC(=O)C1C(=O)C=C(c2ccc3c(c2)OCO3)CC1c1ccc(OC)cc1 (centres undefined) :: 0
13. CCOC(=O)C1C(=O)C=C(c2ccccc2)CC1c1ccc(OC)c(OC)c1 (centres undefined) :: 5
14. CCOC(=O)C1C(=O)C=C(c2ccccc2)CC1c1ccccc1 (centres undefined) :: 0

The values you see were collected from ChEMBL document CHEMBL3045565.
